The following compounds are listed with their measured IC50 values.
tested on: K562; test: cells; format: functional, cell-based; settings: Homo sapiens
Description: Cytotoxic property against K562 cell line was determined
# value in µM; strip the unit string

Example compounds with recorded IC50:
compound | measurement_unit | IC50
CC(C)n1cnc2c(Nc3cccc(Cl)c3)nc(NC3CCC(N)CC3)nc21 (stereo not drawn) | µM | 1.4
CCC(CO)Nc1nc(NCc2ccccc2)c2nc(O)n(C(C)C)c2n1 (stereo not drawn) | µM | 74

Let us move to another entry and its IC50.
GET /values?readout=IC50&item= CCC(CO)Nc1nc(NCc2cccc(O)c2)c2nc(Cl)n(C(C)C)c2n1 (stereo not drawn)
27
